Molecular target: T1, recombinant human activated Factor VII (FVIIa) (human, UniProt P08709 61-212; P08709 213-466, ten glutamate residues of the Gla domain may be gamma-carboxylated)
T1 construct: chains tethered by a disulfide bond; also called Factor VIIa; rFVIIa
T1 sequence 1: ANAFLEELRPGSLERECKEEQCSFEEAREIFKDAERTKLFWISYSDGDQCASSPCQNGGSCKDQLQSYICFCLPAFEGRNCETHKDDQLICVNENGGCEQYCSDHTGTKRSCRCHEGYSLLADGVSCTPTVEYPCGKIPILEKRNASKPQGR
T1 sequence 2: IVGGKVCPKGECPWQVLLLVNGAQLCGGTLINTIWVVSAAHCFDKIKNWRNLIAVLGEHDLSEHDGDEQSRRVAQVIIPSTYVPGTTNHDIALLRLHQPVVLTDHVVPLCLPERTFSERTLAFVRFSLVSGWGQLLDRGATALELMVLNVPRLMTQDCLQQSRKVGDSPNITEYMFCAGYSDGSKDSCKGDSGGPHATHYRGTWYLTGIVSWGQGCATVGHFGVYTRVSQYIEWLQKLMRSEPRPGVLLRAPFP
Experiment: BLI (Fortebio)
Measured Kd accompanies every entry in the list below.
Your answer is read as nM, so omit the unit and give the number.

Record excerpt, results attached:
BINDER	Kd (nM)
VH SEQ ID NO 634 / VL SEQ ID NO 398 (antibody, IgG4, V domains shown, humanized 11F2; IgG4 S228P/kappa) VH: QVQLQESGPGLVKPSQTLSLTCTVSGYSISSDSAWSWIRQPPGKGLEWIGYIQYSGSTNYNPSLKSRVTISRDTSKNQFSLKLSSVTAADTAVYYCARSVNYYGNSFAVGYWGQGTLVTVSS VL: EIVLTQSPATLSLSPGERATLSCRASQGVSDYLAWYQQKPGEAPRLLIKYTSQPATGIPARFSGSGSGTDFTLTISSLEPEDFAVYYCQNGHSFPLTFGQGTKLEIK	8.2
VH SEQ ID NO 522 / VL SEQ ID NO 486 (antibody, IgG4, V domains shown, humanized 11F2; IgG4 S228P/kappa) VH: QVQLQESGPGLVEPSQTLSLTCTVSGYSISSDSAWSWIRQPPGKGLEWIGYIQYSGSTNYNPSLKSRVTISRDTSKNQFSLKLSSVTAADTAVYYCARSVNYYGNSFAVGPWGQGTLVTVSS VL: EIVLTQSPATLSLSPGERATLSCRASQGVSDYLHWYQQKPGQAPRLLIKYASQPATGIPARFSGSGSGTDFTLTISSLEPEDFGVYYCQNGHSFPLTFGQGTKLEIK	1.5

Here's the next entry for you.
Entry VH SEQ ID NO 538 / VL SEQ ID NO 390 (antibody, IgG4, V domains shown, humanized 11F2; IgG4 S228P/kappa) VH: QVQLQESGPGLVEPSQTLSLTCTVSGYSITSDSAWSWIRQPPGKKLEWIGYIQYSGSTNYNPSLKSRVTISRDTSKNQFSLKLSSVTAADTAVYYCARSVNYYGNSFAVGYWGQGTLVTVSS VL: EIVLTQSPATLSLSPGERATLSCRASQGVSDYLAWYQQKPGEAPRLLIKYASQPATGIPARFSGSGSGTDFTLTISSLEPEDFAVYYCQNGHSFPLTFGQGTKLEIK : reported Kd = ? 7
